MIC listing for selected compounds.
Tested on: Mycobacterium tuberculosis
PROTOCOL_SUMMARY: Antimicrobial activity against Mycobacterium tuberculosis H37Rv after 4 weeks by agar dilution assay
Format: functional
CONDITION_CONTEXT: 672 h

{"columns": ["COMPOUND", "TARGET", "MIC"],
 "data": [
  ["Fc1ccc(-c2csc(Nc3ccccc3C(F)(F)F)n2)cc1", "Mycobacterium tuberculosis", "> 12.5 µg/mL"]
]}

# input compound: "COc1cccc2c1CCC/C2=N/Nc1nc(-c2ccc(Cl)cc2Cl)cs1" ; wanted: its MIC
12.5 µg/mL

# input compound: "Fc1ccc(Nc2nc(-c3ccc(F)cc3)cs2)cc1" ; wanted: its MIC
1.8 µg/mL

# input compound: "COc1cccc2c1CCC/C2=N/Nc1nc(-c2cccc([N+](=O)[O-])c2)cs1" ; wanted: its MIC
12.5 µg/mL

# input compound: "COc1ccc(-c2csc(Nc3ccccc3C(F)(F)F)n2)cc1OC" ; wanted: its MIC
> 12.5 µg/mL

# input compound: "COc1ccc(OC)c(Nc2nc(-c3ccc(F)cc3)cs2)c1" ; wanted: its MIC
> 12.5 µg/mL

# input compound: "COc1ccc(-c2csc(N/N=C3/CCCc4c(OC)cccc43)n2)cc1OC" ; wanted: its MIC
6.25 µg/mL

# input compound: "O=[N+]([O-])c1cccc(-c2csc(Nc3ccccc3C(F)(F)F)n2)c1" ; wanted: its MIC
> 12.5 µg/mL

# input compound: "COc1cccc2c1CCC/C2=N/Nc1nc(-c2ccc(F)cc2)cs1" ; wanted: its MIC
6.25 µg/mL

# input compound: "COc1ccc(-c2csc(Nc3cc(OC)ccc3OC)n2)cc1" ; wanted: its MIC
> 12.5 µg/mL

# input compound: "Clc1ccc(Cn2cc(/C=N/Nc3nc(-c4ccc(Cl)cc4Cl)cs3)c3ccccc32)c(Cl)c1" ; wanted: its MIC
12.5 µg/mL

# input compound: "COc1ccc(OC)c(Nc2nc(-c3cccc([N+](=O)[O-])c3)cs2)c1" ; wanted: its MIC
> 12.5 µg/mL
